Measured MIC, listed per entry.
system: Pseudomonas aeruginosa; experiment: Potentiation of aztreonam-induced antibacterial activity against carbapenem-resistant Pseudomonas aeruginosa 101885 clinical isolate assessed as aztreonam MIC at 8 uM by checkerboard assay (reference value: 16 ug/ml); assay type: functional
The reply should be a number in µg/mL, with the unit left off.

N=C(N)NC[C@H]1O[C@H](O[C@H]2[C@H](OCCCCCCCCCCCCN3CCN(c4cc5c(cc4F)c(=O)c(C(=O)O)cn5C4CC4)CC3)[C@@H](O[C@H]3O[C@H](CO)[C@@H](O)[C@H](NC(=N)N)[C@H]3O)[C@H](NC(=N)N)C[C@@H]2NC(=N)N)[C@H](NC(=N)N)C[C@@H]1O.O=C(O)C(F)(F)F.O=C(O)C(F)(F)F.O=C(O)C(F)(F)F.O=C(O)C(F)(F)F.O=C(O)C(F)(F)F.O=C(O)C(F)(F)F :: 4

Let's switch to this compound now.
What value of MIC has been reported for the following compound? NC[C@H]1O[C@H](O[C@H]2[C@H](OCCCCc3cn(CCCCO[C@@H]4[C@@H](O)[C@H](N)C[C@H](N)[C@H]4O[C@H]4O[C@H](CN)[C@@H](O)C[C@H]4N)nn3)[C@@H](O)[C@H](N)C[C@@H]2N)[C@H](N)C[C@@H]1O.O=C(O)C(F)(F)F.O=C(O)C(F)(F)F.O=C(O)C(F)(F)F.O=C(O)C(F)(F)F.O=C(O)C(F)(F)F.O=C(O)C(F)(F)F.O=C(O)C(F)(F)F.O=C(O)C(F)(F)F 4

----------
system: Pseudomonas aeruginosa; assay: Antibacterial activity against Pseudomonas aeruginosa PAO750 harboring mexAB-oprM/mexCD-oprJ/mexEF-oprN/mexJK/mexXY/opmH efflux deficient mutant; format: functional
MEASURED ENDPOINT: MIC
Note: state the figure and append the unit.

What value of MIC has been reported for the following molecule? NC[C@H]1O[C@H](O[C@H]2[C@H](OCCCCCCCCN3CCCNCCNCCCNCC3)[C@@H](O[C@H]3O[C@H](CO)[C@@H](O)[C@H](N)[C@H]3O)[C@H](N)C[C@@H]2N)[C@H](N)C[C@@H]1O.O=C(O)C(F)(F)F.O=C(O)C(F)(F)F.O=C(O)C(F)(F)F.O=C(O)C(F)(F)F.O=C(O)C(F)(F)F.O=C(O)C(F)(F)F.O=C(O)C(F)(F)F.O=C(O)C(F)(F)F.O=C(O)C(F)(F)F 128 µg/mL

----------
Measured MIC, listed per entry.
tested on: Pseudomonas aeruginosa; assay: Potentiation of ceftazidime-induced antibacterial activity against carbapenem-resistant Pseudomonas aeruginosa 259-96918 clinical isolate expressing metallo-beta-lactamase assessed as ceftazidime MIC at 8 uM by checkerboard assay (reference value: 512 ug/ml); type: functional

Here are 4 compounds together with their reported answers.
Cl.Cl.Cl.Cl.Cl.Cl.NC[C@H]1O[C@H](O[C@H]2[C@H](OCCCCCCCCCCCCN3CCN(c4cc5c(cc4F)c(=O)c(C(=O)O)cn5C4CC4)CC3)[C@@H](O[C@H]3O[C@H](CO)[C@@H](O)[C@H](N)[C@H]3O)[C@H](N)C[C@@H]2N)[C@H](N)C[C@@H]1O :: 64 µg/mL
NC[C@H]1O[C@H](O[C@H]2[C@H](OCCCCCCCCN3CCCNCCNCCCNCC3)[C@@H](O)[C@H](N)C[C@@H]2N)[C@H](N)C[C@@H]1O.O=C(O)C(F)(F)F.O=C(O)C(F)(F)F.O=C(O)C(F)(F)F.O=C(O)C(F)(F)F.O=C(O)C(F)(F)F.O=C(O)C(F)(F)F.O=C(O)C(F)(F)F.O=C(O)C(F)(F)F :: 128 µg/mL
NC[C@H]1O[C@H](O[C@H]2[C@H](OCCCCc3cn(CCCCO[C@@H]4[C@@H](O)[C@H](N)C[C@H](N)[C@H]4O[C@H]4O[C@H](CN)[C@@H](O)C[C@H]4N)nn3)[C@@H](O)[C@H](N)C[C@@H]2N)[C@H](N)C[C@@H]1O.O=C(O)C(F)(F)F.O=C(O)C(F)(F)F.O=C(O)C(F)(F)F.O=C(O)C(F)(F)F.O=C(O)C(F)(F)F.O=C(O)C(F)(F)F.O=C(O)C(F)(F)F.O=C(O)C(F)(F)F :: 128 µg/mL
N=C(N)NC[C@H]1O[C@H](O[C@H]2[C@H](OCCCCCCCCCCCCN3CCN(c4cc5c(cc4F)c(=O)c(C(=O)O)cn5C4CC4)CC3)[C@@H](O[C@H]3O[C@H](CO)[C@@H](O)[C@H](NC(=N)N)[C@H]3O)[C@H](NC(=N)N)C[C@@H]2NC(=N)N)[C@H](NC(=N)N)C[C@@H]1O.O=C(O)C(F)(F)F.O=C(O)C(F)(F)F.O=C(O)C(F)(F)F.O=C(O)C(F)(F)F.O=C(O)C(F)(F)F.O=C(O)C(F)(F)F :: 512 µg/mL

Let's switch to this compound now.
What value of MIC has been reported for the following compound? Cl.Cl.Cl.Cl.Cl.NC[C@H]1O[C@H](O[C@H]2[C@H](OCCCCCCCCCCCCN3CCN(c4cc5c(cc4F)c(=O)c(C(=O)O)cn5C4CC4)CC3)[C@@H](O)[C@H](N)C[C@@H]2N)[C@H](N)C[C@@H]1O 128 µg/mL

----------
Measured MIC, listed per entry.
tested on: Pseudomonas aeruginosa; assay: Potentiation of aztreonam-induced antibacterial activity against carbapenem-resistant Pseudomonas aeruginosa 86052 clinical isolate assessed as aztreonam MIC at 8 uM by checkerboard assay (reference value: 64 ug/ml); assay type: functional
The reply should be a number in µg/mL, with the unit left off.

What value of MIC has been reported for the following compound? NC[C@H]1O[C@H](O[C@H]2[C@H](OCCCCCCCCN3CCCNCCNCCCNCC3)[C@@H](O)[C@H](N)C[C@@H]2N)[C@H](N)C[C@@H]1O.O=C(O)C(F)(F)F.O=C(O)C(F)(F)F.O=C(O)C(F)(F)F.O=C(O)C(F)(F)F.O=C(O)C(F)(F)F.O=C(O)C(F)(F)F.O=C(O)C(F)(F)F.O=C(O)C(F)(F)F 64

What value of MIC has been reported for the following compound? Cl.Cl.Cl.Cl.Cl.NC[C@H]1O[C@H](O[C@H]2[C@H](OCCCCCCCCCCCCN3CCN(c4cc5c(cc4F)c(=O)c(C(=O)O)cn5C4CC4)CC3)[C@@H](O)[C@H](N)C[C@@H]2N)[C@H](N)C[C@@H]1O 4

What value of MIC has been reported for the following compound? NC[C@H]1O[C@H](O[C@H]2[C@H](OCCCCc3cn(CCCCO[C@@H]4[C@@H](O)[C@H](N)C[C@H](N)[C@H]4O[C@H]4O[C@H](CN)[C@@H](O)C[C@H]4N)nn3)[C@@H](O)[C@H](N)C[C@@H]2N)[C@H](N)C[C@@H]1O.O=C(O)C(F)(F)F.O=C(O)C(F)(F)F.O=C(O)C(F)(F)F.O=C(O)C(F)(F)F.O=C(O)C(F)(F)F.O=C(O)C(F)(F)F.O=C(O)C(F)(F)F.O=C(O)C(F)(F)F 32

What value of MIC has been reported for the following compound? Cl.Cl.Cl.Cl.Cl.Cl.NC[C@H]1O[C@H](O[C@H]2[C@H](OCCCCCCCCCCCCN3CCN(c4cc5c(cc4F)c(=O)c(C(=O)O)cn5C4CC4)CC3)[C@@H](O[C@H]3O[C@H](CO)[C@@H](O)[C@H](N)[C@H]3O)[C@H](N)C[C@@H]2N)[C@H](N)C[C@@H]1O 8

What value of MIC has been reported for the following compound? N=C(N)NC[C@H]1O[C@H](O[C@H]2[C@H](OCCCCCCCCCCCCN3CCN(c4cc5c(cc4F)c(=O)c(C(=O)O)cn5C4CC4)CC3)[C@@H](O[C@H]3O[C@H](CO)[C@@H](O)[C@H](NC(=N)N)[C@H]3O)[C@H](NC(=N)N)C[C@@H]2NC(=N)N)[C@H](NC(=N)N)C[C@@H]1O.O=C(O)C(F)(F)F.O=C(O)C(F)(F)F.O=C(O)C(F)(F)F.O=C(O)C(F)(F)F.O=C(O)C(F)(F)F.O=C(O)C(F)(F)F 32

----------
tested on: Pseudomonas aeruginosa; test: Potentiation of aztreonam-induced antibacterial activity against carbapenem-resistant Pseudomonas aeruginosa PAO200 harboring mexAB-oprM efflux deficient mutant assessed as aztreonam MIC at 8 uM by checkerboard assay (reference value: 0.25 ug/ml); format: functional
Measured MIC, listed per entry.
Note: state the figure and append the unit.

Here are 2 molecules together with their reported answers.
NC[C@H]1O[C@H](O[C@H]2[C@H](OCCCCCCCCN3CCCNCCNCCCNCC3)[C@@H](O)[C@H](N)C[C@@H]2N)[C@H](N)C[C@@H]1O.O=C(O)C(F)(F)F.O=C(O)C(F)(F)F.O=C(O)C(F)(F)F.O=C(O)C(F)(F)F.O=C(O)C(F)(F)F.O=C(O)C(F)(F)F.O=C(O)C(F)(F)F.O=C(O)C(F)(F)F :: 0.06 µg/mL
Cl.Cl.Cl.Cl.Cl.NC[C@H]1O[C@H](O[C@H]2[C@H](OCCCCCCCCCCCCN3CCN(c4cc5c(cc4F)c(=O)c(C(=O)O)cn5C4CC4)CC3)[C@@H](O)[C@H](N)C[C@@H]2N)[C@H](N)C[C@@H]1O :: 0.03 µg/mL

What value of MIC has been reported for the following molecule? Cl.Cl.Cl.Cl.Cl.Cl.NC[C@H]1O[C@H](O[C@H]2[C@H](OCCCCCCCCCCCCN3CCN(c4cc5c(cc4F)c(=O)c(C(=O)O)cn5C4CC4)CC3)[C@@H](O[C@H]3O[C@H](CO)[C@@H](O)[C@H](N)[C@H]3O)[C@H](N)C[C@@H]2N)[C@H](N)C[C@@H]1O 0.03 µg/mL

What value of MIC has been reported for the following molecule? NC[C@H]1O[C@H](O[C@H]2[C@H](OCCCCc3cn(CCCCO[C@@H]4[C@@H](O)[C@H](N)C[C@H](N)[C@H]4O[C@H]4O[C@H](CN)[C@@H](O)C[C@H]4N)nn3)[C@@H](O)[C@H](N)C[C@@H]2N)[C@H](N)C[C@@H]1O.O=C(O)C(F)(F)F.O=C(O)C(F)(F)F.O=C(O)C(F)(F)F.O=C(O)C(F)(F)F.O=C(O)C(F)(F)F.O=C(O)C(F)(F)F.O=C(O)C(F)(F)F.O=C(O)C(F)(F)F 0.06 µg/mL

What value of MIC has been reported for the following molecule? N=C(N)NC[C@H]1O[C@H](O[C@H]2[C@H](OCCCCCCCCCCCCN3CCN(c4cc5c(cc4F)c(=O)c(C(=O)O)cn5C4CC4)CC3)[C@@H](O[C@H]3O[C@H](CO)[C@@H](O)[C@H](NC(=N)N)[C@H]3O)[C@H](NC(=N)N)C[C@@H]2NC(=N)N)[C@H](NC(=N)N)C[C@@H]1O.O=C(O)C(F)(F)F.O=C(O)C(F)(F)F.O=C(O)C(F)(F)F.O=C(O)C(F)(F)F.O=C(O)C(F)(F)F.O=C(O)C(F)(F)F 0.06 µg/mL
